Biological target: Voltage-dependent T-type calcium channel subunit alpha-1H (Homo sapiens) (UniProt O95180)
Sequence (O95180 whole entry, looked up): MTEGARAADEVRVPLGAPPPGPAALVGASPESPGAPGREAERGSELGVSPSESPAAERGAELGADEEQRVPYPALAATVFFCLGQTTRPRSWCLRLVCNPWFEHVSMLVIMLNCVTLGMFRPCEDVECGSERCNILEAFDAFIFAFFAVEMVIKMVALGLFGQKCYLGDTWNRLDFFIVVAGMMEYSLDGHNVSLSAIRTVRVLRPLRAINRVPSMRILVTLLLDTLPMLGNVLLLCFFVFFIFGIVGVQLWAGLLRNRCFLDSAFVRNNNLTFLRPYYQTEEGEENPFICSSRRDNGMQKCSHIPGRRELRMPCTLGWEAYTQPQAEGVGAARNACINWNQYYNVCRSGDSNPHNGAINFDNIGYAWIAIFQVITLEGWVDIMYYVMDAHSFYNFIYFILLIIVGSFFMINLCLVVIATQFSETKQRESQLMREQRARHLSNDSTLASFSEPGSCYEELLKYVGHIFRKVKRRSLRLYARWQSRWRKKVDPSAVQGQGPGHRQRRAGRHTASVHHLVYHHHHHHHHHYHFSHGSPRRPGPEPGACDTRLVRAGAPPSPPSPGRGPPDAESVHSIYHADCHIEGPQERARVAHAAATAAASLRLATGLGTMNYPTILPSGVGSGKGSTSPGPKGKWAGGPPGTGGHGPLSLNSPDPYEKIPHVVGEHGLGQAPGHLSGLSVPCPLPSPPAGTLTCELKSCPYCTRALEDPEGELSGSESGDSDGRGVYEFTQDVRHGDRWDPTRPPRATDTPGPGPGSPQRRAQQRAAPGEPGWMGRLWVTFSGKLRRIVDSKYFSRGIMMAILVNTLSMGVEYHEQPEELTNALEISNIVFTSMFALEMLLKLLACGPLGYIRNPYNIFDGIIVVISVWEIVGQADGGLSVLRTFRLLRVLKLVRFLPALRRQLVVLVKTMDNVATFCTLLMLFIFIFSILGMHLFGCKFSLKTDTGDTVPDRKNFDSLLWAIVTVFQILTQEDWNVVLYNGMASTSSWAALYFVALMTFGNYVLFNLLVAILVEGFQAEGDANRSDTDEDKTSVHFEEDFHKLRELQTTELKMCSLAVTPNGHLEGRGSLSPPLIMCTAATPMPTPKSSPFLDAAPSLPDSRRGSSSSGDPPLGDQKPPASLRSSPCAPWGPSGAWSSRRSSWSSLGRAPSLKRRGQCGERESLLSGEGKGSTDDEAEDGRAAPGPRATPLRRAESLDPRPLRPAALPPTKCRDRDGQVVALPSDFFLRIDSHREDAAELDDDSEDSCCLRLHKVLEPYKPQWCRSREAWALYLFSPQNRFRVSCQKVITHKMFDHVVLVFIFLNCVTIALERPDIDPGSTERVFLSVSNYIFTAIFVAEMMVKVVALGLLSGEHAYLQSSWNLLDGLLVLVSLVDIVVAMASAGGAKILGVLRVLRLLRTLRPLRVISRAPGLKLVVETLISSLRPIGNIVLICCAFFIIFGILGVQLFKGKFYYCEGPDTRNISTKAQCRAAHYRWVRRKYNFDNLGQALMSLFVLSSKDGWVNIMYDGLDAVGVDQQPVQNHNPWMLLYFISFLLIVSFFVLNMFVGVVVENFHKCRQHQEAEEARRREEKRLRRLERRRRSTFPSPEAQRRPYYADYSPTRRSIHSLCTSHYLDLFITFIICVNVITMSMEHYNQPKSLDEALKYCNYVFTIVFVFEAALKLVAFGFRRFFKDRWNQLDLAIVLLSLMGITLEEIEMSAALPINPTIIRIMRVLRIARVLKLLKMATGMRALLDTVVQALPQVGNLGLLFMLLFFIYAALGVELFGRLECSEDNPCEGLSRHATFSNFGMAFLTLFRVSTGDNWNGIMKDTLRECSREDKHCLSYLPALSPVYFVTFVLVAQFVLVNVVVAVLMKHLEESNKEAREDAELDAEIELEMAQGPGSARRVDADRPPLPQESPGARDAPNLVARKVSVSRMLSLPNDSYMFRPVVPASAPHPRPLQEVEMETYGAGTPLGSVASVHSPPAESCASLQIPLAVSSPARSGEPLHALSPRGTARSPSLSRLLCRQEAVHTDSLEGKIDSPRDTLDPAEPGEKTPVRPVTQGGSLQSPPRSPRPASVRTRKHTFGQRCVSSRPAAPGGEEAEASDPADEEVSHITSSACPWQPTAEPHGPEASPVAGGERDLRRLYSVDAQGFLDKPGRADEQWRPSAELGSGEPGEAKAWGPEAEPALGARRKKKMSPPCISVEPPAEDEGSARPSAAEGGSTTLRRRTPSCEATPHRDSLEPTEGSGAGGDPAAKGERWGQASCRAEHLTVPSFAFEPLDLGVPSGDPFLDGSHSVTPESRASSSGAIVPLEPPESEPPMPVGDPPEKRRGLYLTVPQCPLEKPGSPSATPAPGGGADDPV
Assay: Cav3.2 calcium influx blockers – cell-based, Fluo-4 calcium fluorescence, FDSS, MLSMR library, primary screen (AID 449739)
Settings: Cav3.2-expressing cells, at 10 µM, hits give low values
About 4,200 (4.2%) of roughly 100,000 compounds were called active. This excerpt belongs to a sample that is enriched for actives.
Note to self: B-score under -1 means condition met, ties and anything higher get condition not met.

Please review the entries below; each comes with its answer.
| Compound | Qualitative label |
| --- | --- |
| O=C(Cc1ccc(S(=O)(=O)N2CCCC2)s1)NC1CCCCCC1 | condition not met |
| C=C(C)COc1ccc(-c2n[nH]c(C)c2-c2ccccc2OC)c(O)c1 | condition met |
| CS(=O)(=O)N(CC(=O)N1CCN(Cc2ccc3c(c2)OCO3)CC1)c1ccc2c(c1)OCO2 | condition not met |

Determine whether this compound shows B-score lower than -1 (ties excluded): Cc1ccc(Nc2nc(-c3sc(NC(=O)c4ccccc4)nc3C)cs2)cc1
condition not met

---

Molecular target: Voltage-dependent T-type calcium channel subunit alpha-1H (Homo sapiens) (UniProt O95180)
Assay: Cav3.2 calcium influx blockers – cell-based, Fluo-4 calcium fluorescence, FDSS, MLSMR library, primary screen (AID 449739)
Conditions: Cav3.2-expressing cells, at 10 µM, hits give low values
The whole screen tested about 100,000 compounds, of which about 4,200 (4.2%) were called active. Many of the other results were omitted from the sample, so actives are more common in it than they were.
# note: exactly -4 is not below, so it is rule not met; use rule met for B-score strictly under it

| Molecule | Target under test | Qualitative label |
| --- | --- | --- |
| CC/C=C/C(=O)N1CC2(CC(c3cccc(NC(=O)CC)c3)=NO2)C[C@H]1C(N)=O (some centres undefined) | Voltage-dependent T-type calcium channel subunit alpha-1H (Homo sapiens) (UniProt O95180) | rule not met |
| O=C(CSCc1ccc([N+](=O)[O-])cc1)Nc1cccc(C(=O)Nc2ccccc2C(=O)O)c1 | Voltage-dependent T-type calcium channel subunit alpha-1H (Homo sapiens) (UniProt O95180) | rule not met |
| COc1ccc(C(C(O)C(=O)c2c[nH]c3ccccc23)N2CCN(c3ccccc3)CC2)cc1 (centres undefined) | Voltage-dependent T-type calcium channel subunit alpha-1H (Homo sapiens) (UniProt O95180) | rule met |
| O=C(CN1CCCCCC1)N1c2ccccc2Sc2ccc(C(F)(F)F)cc21 | Voltage-dependent T-type calcium channel subunit alpha-1H (Homo sapiens) (UniProt O95180) | rule met |

Quick check: does COc1ccc(COCCN2CCN(S(=O)(=O)c3ccccc3)CCC2=O)cc1 have B-score under -4?
rule not met

In plain terms, does Cc1cccc(C)c1NC(=O)CSc1nnc(-c2ccccc2)n1Cc1ccc2c(c1)OCO2 come in under -4 for B-score?
rule met

Please indicate whether the reported B-score of O=C(CSCc1ccc([N+](=O)[O-])cc1)NCCSCc1ccccc1 is strictly below -4.
rule met

Field: below-cutoff. Rule: recorded B-score strictly less than -4. Subject: Cc1ccccc1-c1nnc(SCC(=O)NCc2ccc3c(c2)OCO3)n1C
rule not met

---

Molecular target: Voltage-dependent T-type calcium channel subunit alpha-1H (Homo sapiens)
Experiment: Cav3.2 calcium influx blockers – cell-based, Fluo-4 calcium fluorescence, FDSS, MLSMR library, primary screen (AID 449739)
Details: Cav3.2-expressing cells, at 10 µM, hits give low values
Screen size: about 100,000 compounds; about 4,200 (4.2%) were called active. This is one part of a sample in which actives are shown more often than they occur.
Each record's class is read off its B-score using these ranges: group A: < -4; group B: ≥ -4 and < -0.1; group C: ≥ -0.1

| Compound | Qualitative label |
| --- | --- |
| CC(C)=CCc1c(O)c(CC=C(C)C)c2occ(-c3ccc(O)cc3)c(=O)c2c1O | group B |
| CCCN(CCC)C(=O)C1c2ccccc2Oc2ccccc21 | group A |
| N#Cc1ccc(-c2ccc(Cl)cc2)nc1Oc1ccc(F)cc1 | group B |
| COc1ccc(-c2[nH]nc(-c3ccccc3)c2-c2nc3ccccc3[nH]2)cc1 | group A |
| O=C(c1ccco1)N1CCN(C(=O)C2c3ccccc3Oc3ccccc32)CC1 | group C |

GET /class?item= CCCc1[nH]nc2c1C(c1c(C)nn(-c3ccccc3)c1Cl)C(C#N)=C(N)O2 (stereo not given)
group A

Please let me know in which category the item O=C(N/N=C/c1ccc(O)c(O)c1)C1c2ccccc2Oc2ccccc21 belongs.
group C

Hey, which category is CCCCNC(=O)c1onc(CSc2cccc(OC)c2)c1C(=O)O in, do you know?
group B

Sort into band: Cc1cccc(NC(=S)NCc2ccc3[nH]c4c(c3c2)CCCC4)c1
group B

Class for O=[N+]([O-])c1ccccc1NCc1ccc(Cl)cc1 ?
group B

---

Molecular target: Voltage-dependent T-type calcium channel subunit alpha-1H (Homo sapiens)
Assay: Cav3.2 calcium influx blockers – cell-based, Fluo-4 calcium fluorescence, FDSS, MLSMR library, primary screen (AID 449739)
Conditions: Cav3.2-expressing cells, at 10 µM, hits give low values
Screen size: about 100,000 compounds; about 4,200 (4.2%) were called active. The sample as a whole holds a higher share of actives than the screen did.
// values below are reported B-score
Enter the number alone.

| Molecule | B-score |
| --- | --- |
| CC(=O)Nc1cccc(/C(C)=N/NC(=O)c2ccccc2Cl)c1 | 0.407 |
| COC(C[C@@H](O)C[C@@H](O)[C@H](C)OCc1ccccc1)OC | 0.484 |
| COc1ccc(-c2cn(-c3ccc(C)cc3)c(=O)n2CC(=O)Nc2ccc(OC)c(OC)c2)cc1 | -1.46 |
| Clc1cccc(-c2nc3nc4ccccc4nc3n2Cc2ccco2)c1 | -2.21 |
| COc1ccc2nc(SCC(=O)Nc3c(C)cc(C)cc3C)[nH]c2c1 | -0.844 |
| O=C(NC1CC1)C1=C[C@H](c2c[nH]c3ccccc23)C[C@H](OCc2ccc(CO)cc2)O1 | -0.0426 |
| COC(=O)CNC(=O)c1ccccc1[N+](=O)[O-] | 2.22 |
| CC1(OC(=O)CCc2ccccc2)C(=O)C=C2C=C(c3ccc(C#N)cc3)N(CCc3ccccn3)C=C2C1=O (stereo not given) | 0.634 |

Reported B-score of O=C(Cc1ccccc1)N/N=C/c1ccc(Cl)cc1Cl : -0.673

B-score for COc1ccc(NC(=O)Cn2c(-c3ccc(OC)cc3)cn(-c3ccc(C)cc3)c2=O)cc1 is -4.33

The recorded B-score for entry COc1ccc(CNC(=O)C2CC(c3ccc(C(F)(F)F)cc3)=NO2)cc1 (stereo not given) equals -2.34

Memo: Cc1ccc(Cn2c(C)nc3c(c2=O)c2nc4ccccc4nc2n3Cc2ccco2)cc1 , reported B-score: -6.69

B-score recorded for this molecule, Cc1ccc(Cn2c(NC(=O)c3ccco3)nc3ccccc32)cc1 , is 1.58

Sample CC(=O)Nc1ccn(Cc2c(F)cccc2Cl)n1 ; B-score observed: -0.881

Quick note, B-score for COc1ccc(NC(=O)CSc2nc(NS(=O)(=O)c3ccc(C)cc3)cc(=O)[nH]2)cc1 landed at -6.39

---

Biological target: Voltage-dependent T-type calcium channel subunit alpha-1H (Homo sapiens)
Experiment: Cav3.2 calcium influx blockers – cell-based, Fluo-4 calcium fluorescence, FDSS, MLSMR library, primary screen (AID 449739)
Conditions: Cav3.2-expressing cells, at 10 µM, hits give low values
The campaign covered roughly 100,000 compounds. About 4,200 (4.2%) were called active. Many of the other results were omitted from the sample, so actives are more common in it than they were.
// map B-score to label using bottom end = under -0.6, midrange = from -0.6 up to 0.2, top end = 0.2 and over

| Compound | Qualitative label |
| --- | --- |
| Cc1cc2cc3c(N)[nH]nc3nc2cc1C | midrange |
| COc1cc(OC)c2ccc(=O)oc2c1C(CCN1CCN(c2ccccc2)CC1)c1ccc2c(c1)OCO2 (stereo not drawn) | midrange |
| O=[N+]([O-])c1ccc(NCCCN2CCOCC2)c(Cl)c1 | top end |
| CC1(C)CC(=O)C(C=NCCN2CCN(C(=S)Nc3cccc(Cl)c3)CC2)=C(O)C1 | midrange |
| Cc1ccc(CNC(=O)C2CC(c3ccccc3[N+](=O)[O-])=NO2)o1 (stereo not drawn) | bottom end |

Please report the category associated with Cc1ccccc1NC(=O)c1ccccc1 , nothing else.
top end

Which class is correct for the following compound? COC(=O)C(CC(=O)Nc1cc(C)ccc1C)Nc1ccccc1OC (stereo not drawn)
midrange

Bin this entry: CCO[C@H]1OC(C(=O)NCc2ccccc2)=C[C@@H](c2coc3ccccc3c2=O)[C@@H]1CCCO
midrange

---

Molecular target: Voltage-dependent T-type calcium channel subunit alpha-1H (Homo sapiens) (UniProt O95180)
Experiment: Cav3.2 calcium influx blockers – cell-based, Fluo-4 calcium fluorescence, FDSS, MLSMR library, primary screen (AID 449739)
Details: Cav3.2-expressing cells, at 10 µM
Among all 100,000 compounds or so, about 4,200 (4.2%) were called active.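 How the source made its calls: active means single-dose well whose peak fluorescence ratio is a statistical outlier from its plate by either plate-standardised score or position-corrected B-score; inactive means the rest.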 For the sample, actives were picked, then their nearest neighbours and some compounds at random.
Use one of these outcomes when replying: active, inactive

| Smiles entry | Qualitative label |
| --- | --- |
| Cc1cccc(NC(=S)Nc2ccc(Br)cc2)c1 | inactive |
| COC(=O)c1cn(CC(=O)NCc2cccs2)c2ccccc12 | inactive |
| CCOC(=O)c1sc2nc(SC)nc(-c3ccccc3)c2c1N | inactive |
| COc1cc(OC)c(/C=N/NC(=O)c2ccc([N+](=O)[O-])cc2)cc1Br | inactive |
| COc1ccccc1NC(=O)[C@H](COCc1ccccc1)NC(=O)OC(C)(C)C | active |

Next, consider the following compound.
I would be grateful if you could indicate the recorded call for CC(=O)c1sc(NC(=O)c2cccc3ccccc23)nc1C .
inactive
